ASSAY_NOTES: NCI Yeast Anticancer Drug Screen. Data for the sgs1 strain (AID 173)
CONDITION_CONTEXT: S. cerevisiae sgs1 mutant, at 11.0 µM
About 79,000 compounds went through this panel and 15% of them were active in at least one assay; those are over-represented in the sample as a whole. Active and inactive are the calls of the source. Rule as the data show it: active = growth inhibition above about 70%; inactive = the rest.
Outcomes you can answer with include only these: Y (active), N (inactive)

Previously resolved entries follow.
- MOLECULE: "O=[N+]([O-])/C(C(Cl)=C(Cl)Cl)=C1/OCCS1"
  GROUP_LABEL: "Y"
- MOLECULE: "O=C1OC2C(O)COC2(OCc2c[nH]c3ccccc23)C1O (stereo not given) (tested in a mixture with another compound)"
  GROUP_LABEL: "N"

Now take the following molecule into account.
Lookup: What is the recorded call for this molecule in the test? c1ccc(N2N=C3N(c4ccccc4)C2N3c2ccccc2)cc1
Found: N

----------
ASSAY_NOTES: NCI Yeast Anticancer Drug Screen. Data for the sgs1 mgt1 strain (AID 161)
CONDITION_CONTEXT: S. cerevisiae sgs1 mgt1 strain, at 50.0 µM
About 79,000 compounds went through this panel and 15% of them were active in at least one assay; those are over-represented in the sample as a whole. Active and inactive are the calls of the source. Rule as the data show it: active = growth inhibition above about 70%; inactive = the rest.
Give one outcome, nothing more. List: active, inactive

The following molecules have reported results that may help.
- MOLECULE: "CCN1/C(=C/c2ccc3ccccc3[n+]2CC)C=Cc2ccccc21"
  GROUP_LABEL: "active"
- MOLECULE: "CN(NC(=O)/C(=C/c1ccc(O)cc1)NC(=O)c1ccccc1)c1ccnc2cc(Cl)ccc12"
  GROUP_LABEL: "inactive"
- MOLECULE: "O=C1c2cccc3cc([N+](=O)[O-])cc(c23)C(=O)N1CCN1CCCC1"
  GROUP_LABEL: "inactive"
- MOLECULE: "C=Cc1cnc([N+](=O)[O-])n1C"
  GROUP_LABEL: "active"
- MOLECULE: "CC(=O)N1C(=O)/C(=C\\C(=O)c2ccc([N+](=O)[O-])cc2)c2ccccc21"
  GROUP_LABEL: "active"

Lookup: So what was the verdict on Cc1ccc2occ/c(=N\Nc3ccccc3)c2c1 in this test?
Found: active

Lookup: In this assay, the call recorded for CN(C)CCN1C(=O)c2cccc3cc([N+](=O)[O-])cc(c23)C1=O was what?
Found: inactive

Lookup: Returns: the outcome recorded for NCc1c(O)ccc2ccccc12 in this assay.
Found: active

Lookup: Check the results log: what was the call for N#C/C(=C\c1ccccc1)c1ccccc1F ?
Found: inactive

Lookup: Check the results log: what was the call for O=[N+]([O-])c1c(/C=N/Nc2ccccc2)oc(-c2ccc3c(c2)OCO3)c1-c1ccc2c(c1)OCO2 ?
Found: active

Lookup: Recorded test call requested for Cc1cc(N=C2C=CC(=[N+](C)C)C=C2)c(N)cc1N
Found: inactive

Lookup: // param item: Cc1ccc2c(ccc(/C=C/c3ccc(O)c4ncccc34)[n+]2C)c1 ; yields the recorded call
Found: active

Lookup: GET /call?item= CC(=O)C1(O)Cc2c(O)c3c(c(O)c2C(OC2CC(N)C(O)C(C)O2)C1)C(=O)c1ccccc1C3=O (configuration not stated) returns the recorded outcome of this test.
Found: active

Lookup: Check the results log: what was the call for Oc1ccccc1N=Cc1ccc(Cl)cc1 ?
Found: inactive

Lookup: Fill in: this test's call for O=C(NCCCCCN1CCC2(CCCCC2)CC1)C(C1CCCCC1)C1CCCCC1 is ___
Found: active

Lookup: Hey, what did the test say about Oc1ccc(C=Nc2ccccc2O)cc1 ?
Found: inactive

Lookup: Tell me the recorded outcome of this test for COc1ccc(N=N/C(=N\NC(=O)c2cc(Br)ccc2O)c2ccc(N(CCC#N)CCC#N)cc2OC)cc1 .
Found: inactive

Lookup: What is the recorded call for this molecule in the test? CN(N=O)C(=O)N[C@@H](C=O)[C@@H](O)[C@H](O)[C@H](O)CO
Found: inactive

Lookup: Entry N#CSC1CCCCNC1=O (configuration not stated) : call = ?
Found: inactive

Lookup: Which outcome was entered for the molecule N#CC(=S)Nc1cccc(Cl)c1 in this test?
Found: inactive

Lookup: Per the records of this test, what outcome belongs to CCOC(=O)CNC(=O)c1[nH]cnc1/N=N/N(C)C ?
Found: active

Lookup: Dear all, I need the recorded test outcome for CC1=CCCC2C1(C)CCC(C)C2(C)Cc1cc(O)ccc1O (configuration not stated) , thank you.
Found: active
